Measured IC50, listed per entry.
Tested on: MalMe3M
assay.info: MTT assay (anti-proliferative activity)
Assay type: cell-based
measurement.context: Homo sapiens, Malme-3M, 96 h continual exposure, read-out: IC 50 MalMe3M
recorded.metric: IC50 (µM)

compound="CC1Cc2c(I)ccc(O)c2C(=O)O1 (racemic) [ALM-26, Racemic Para-Iodomellein]" quantity_unit=µM measurement_qualifier== value_observed=168
compound="CC1Cc2ccc(I)c(O)c2C(=O)O1 (racemic) [ALM-25, Racemic Ortho-Iodomellein]" quantity_unit=µM measurement_qualifier== value_observed=75.6
compound="COc1cc2c(c(OC)c1)C(=O)OC(C)C2 (racemic)" quantity_unit=µM measurement_qualifier== value_observed=626
compound=COc1cccc2c1C(=O)O[C@H](C)C2 quantity_unit=µM measurement_qualifier=> value_observed=1040
compound="CC1Cc2ccc(C(=O)O)c(O)c2C(=O)O1 (racemic)" quantity_unit=µM measurement_qualifier=> value_observed=900

Origin of the recorded values: patent US20090047221A1
